Organism: Homo sapiens
Test: Selectivity ratio of IC50 for displacement of fluorescein labeled ACRGDGWC from human Integrin alphaVbeta1 to IC50 for displacement of fluorescein labeled GRGDLGRL from human Integrin alphaVbeta6
Ratio IC50 values, listed per item

Worked examples, 3 compounds total:
STRUCTURE SMILES STRING: O=C(O)[C@H](c1cc(F)ccc1[C@@H]1CCCO1)N1CC[C@@H](OCCCCc2ccc3c(n2)NCCC3)C1
Ratio IC50: > 50
--
STRUCTURE SMILES STRING: O=C(O)[C@H](c1cc(F)ccc1[C@@H]1CCCCO1)N1CC[C@@H](OCCCCc2ccc3c(n2)NCCC3)C1
Ratio IC50: > 50
--
STRUCTURE SMILES STRING: CC1(C)CC[C@@H](c2ccccc2[C@@H](C(=O)O)N2CC[C@@H](OCCCCc3ccc4c(n3)NCCC4)C2)OC1
Ratio IC50: 1100

Q: Quickly give me recorded Ratio IC50 for O=C(NCCCc1ccc2c(n1)NCCC2)[C@@H]1CCN([C@H](C(=O)O)c2ccccc2)C1
Result: > 50

* * *

Experiment: Volume of distribution at steady state in Sprague-Dawley rat at 1 mg/kg, iv measured upto 24 hrs by LC/MS-MS analysis
Assay type: ADME, organism-based
Details: in vivo, read-out: Vdss
RESULT TYPE: Vd (L/kg)
Hi! Could you send only the number? It should be in L/kg, unit omitted.

STRUCTURE SMILES STRING: CC1(C)CC[C@@H](c2ccc(F)cc2[C@@H](C(=O)O)N2CC[C@@H](OCCCCc3ccc4c(n3)NCCC4)C2)OC1
Vd [L/kg]: 2.4

Q: Quickly give me recorded Vd for O=C(O)[C@H](c1cc(F)ccc1[C@@H]1CCC2(CC2)CO1)N1CC[C@@H](OCCCCc2ccc3c(n2)NCCC3)C1
Result: 3.1

Q: Quickly give me recorded Vd for O=C(O)[C@H](c1cc(F)ccc1[C@@H]1CCCO1)N1CC[C@@H](OCCCCc2ccc3c(n2)NCCC3)C1
Result: 1.2

Q: Quickly give me recorded Vd for O=C(O)[C@H](c1cc(F)ccc1[C@@H]1CCCCO1)N1CC[C@@H](OCCCCc2ccc3c(n2)NCCC3)C1
Result: 2.7

Q: Quickly give me recorded Vd for CC1(C)CC[C@@H](c2ccccc2[C@@H](C(=O)O)N2CC[C@@H](OCCCCc3ccc4c(n3)NCCC4)C2)OC1
Result: 2.6

* * *

IC50 values, listed per item
Target: Integrin alpha-V/beta-8 (Homo sapiens, UniProt P06756+P26012)
Sequence (P06756 31-889 limits assumed): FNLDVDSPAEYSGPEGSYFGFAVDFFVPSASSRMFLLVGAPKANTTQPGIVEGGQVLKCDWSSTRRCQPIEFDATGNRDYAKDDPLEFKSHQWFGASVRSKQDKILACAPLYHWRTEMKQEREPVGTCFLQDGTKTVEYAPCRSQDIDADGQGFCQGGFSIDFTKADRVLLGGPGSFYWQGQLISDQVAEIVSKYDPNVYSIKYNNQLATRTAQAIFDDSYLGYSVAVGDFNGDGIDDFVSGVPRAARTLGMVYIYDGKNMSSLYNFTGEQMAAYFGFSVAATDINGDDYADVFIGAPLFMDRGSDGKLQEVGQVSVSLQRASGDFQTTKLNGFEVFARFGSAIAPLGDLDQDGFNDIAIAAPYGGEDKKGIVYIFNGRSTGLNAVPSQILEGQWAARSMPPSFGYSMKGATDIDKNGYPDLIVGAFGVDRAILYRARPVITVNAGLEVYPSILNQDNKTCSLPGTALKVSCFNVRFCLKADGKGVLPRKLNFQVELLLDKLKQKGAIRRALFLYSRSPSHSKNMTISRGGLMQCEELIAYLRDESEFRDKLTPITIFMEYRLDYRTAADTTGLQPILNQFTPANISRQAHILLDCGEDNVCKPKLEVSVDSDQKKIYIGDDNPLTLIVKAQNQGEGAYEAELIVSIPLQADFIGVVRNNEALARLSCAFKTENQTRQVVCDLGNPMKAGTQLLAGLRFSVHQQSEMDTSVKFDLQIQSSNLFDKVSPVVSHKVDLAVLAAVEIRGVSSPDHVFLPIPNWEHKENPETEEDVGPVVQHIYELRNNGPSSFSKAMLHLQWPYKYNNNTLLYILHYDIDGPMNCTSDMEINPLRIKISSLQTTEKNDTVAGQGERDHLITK
Sequence (P06756 891-1048 limits assumed): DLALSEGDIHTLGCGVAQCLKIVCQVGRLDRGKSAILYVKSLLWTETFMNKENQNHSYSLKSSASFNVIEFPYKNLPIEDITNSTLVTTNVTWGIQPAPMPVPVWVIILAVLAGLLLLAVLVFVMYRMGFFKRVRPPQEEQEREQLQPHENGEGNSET
Sequence (P26012 43-769 limits assumed): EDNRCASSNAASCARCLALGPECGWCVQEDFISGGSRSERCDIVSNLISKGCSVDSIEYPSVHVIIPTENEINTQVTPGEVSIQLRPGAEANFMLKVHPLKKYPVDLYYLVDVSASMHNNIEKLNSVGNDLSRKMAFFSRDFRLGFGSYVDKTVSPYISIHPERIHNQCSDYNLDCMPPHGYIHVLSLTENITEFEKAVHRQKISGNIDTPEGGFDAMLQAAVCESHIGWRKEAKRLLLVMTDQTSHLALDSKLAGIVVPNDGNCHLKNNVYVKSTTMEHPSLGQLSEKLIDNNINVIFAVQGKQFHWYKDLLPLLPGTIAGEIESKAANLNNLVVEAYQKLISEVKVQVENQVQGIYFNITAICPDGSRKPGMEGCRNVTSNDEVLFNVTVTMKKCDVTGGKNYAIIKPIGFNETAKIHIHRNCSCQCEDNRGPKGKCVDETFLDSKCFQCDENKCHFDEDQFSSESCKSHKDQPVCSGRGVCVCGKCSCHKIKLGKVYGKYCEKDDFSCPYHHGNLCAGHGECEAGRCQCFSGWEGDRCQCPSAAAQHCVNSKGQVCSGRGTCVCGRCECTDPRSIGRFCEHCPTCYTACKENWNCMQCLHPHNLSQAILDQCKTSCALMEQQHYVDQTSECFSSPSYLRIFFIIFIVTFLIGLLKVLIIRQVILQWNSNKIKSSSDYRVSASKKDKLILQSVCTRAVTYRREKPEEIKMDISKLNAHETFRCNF
Experiment: Displacement of fluorescein labeled GRGDLGRL from human Integrin alphaVbeta8 preincubated for 15 mins followed by fluorescein labeled GRGDLGRL addition and measured after 1 hr by fluorescence polarization assay
Hi! Could you send only the number? It should be in nM, unit omitted.

COMPOUND: O=C(NCCCc1ccc2c(n1)NCCC2)[C@@H]1CCN([C@@H](C(=O)O)c2ccccc2)C1
TEST TARGET: Integrin alpha-V/beta-8 (Homo sapiens, UniProt P06756+P26012)
IC50 / nM: 130
--
COMPOUND: O=C(O)[C@H](c1cc(F)ccc1[C@@H]1CCCCO1)N1CC[C@@H](OCCCCc2ccc3c(n2)NCCC3)C1
TEST TARGET: Integrin alpha-V/beta-8 (Homo sapiens, UniProt P06756+P26012)
IC50 / nM: 74
--
COMPOUND: CC1(C)CCCC(c2ccccc2[C@@H](C(=O)O)N2CC[C@@H](OCCCCc3ccc4c(n3)NCCC4)C2)O1 (some centres undefined)
TEST TARGET: Integrin alpha-V/beta-8 (Homo sapiens, UniProt P06756+P26012)
IC50 / nM: 150

Now for a further compound.
Q: State, for Integrin alpha-V/beta-8 (Homo sapiens, UniProt P06756+P26012), measured IC50 of the compound listed here: O=C(O)[C@H](c1cccc(C2CC2)c1)N1CC[C@@H](OCCCCc2ccc3c(n2)NCCC3)C1
Result: 180
